# Test target: Gamma-aminobutyric acid receptor subunit alpha-1 (Rattus norvegicus, UniProt P62813); note: assay procedure not described here
# Sequence (P62813 whole entry): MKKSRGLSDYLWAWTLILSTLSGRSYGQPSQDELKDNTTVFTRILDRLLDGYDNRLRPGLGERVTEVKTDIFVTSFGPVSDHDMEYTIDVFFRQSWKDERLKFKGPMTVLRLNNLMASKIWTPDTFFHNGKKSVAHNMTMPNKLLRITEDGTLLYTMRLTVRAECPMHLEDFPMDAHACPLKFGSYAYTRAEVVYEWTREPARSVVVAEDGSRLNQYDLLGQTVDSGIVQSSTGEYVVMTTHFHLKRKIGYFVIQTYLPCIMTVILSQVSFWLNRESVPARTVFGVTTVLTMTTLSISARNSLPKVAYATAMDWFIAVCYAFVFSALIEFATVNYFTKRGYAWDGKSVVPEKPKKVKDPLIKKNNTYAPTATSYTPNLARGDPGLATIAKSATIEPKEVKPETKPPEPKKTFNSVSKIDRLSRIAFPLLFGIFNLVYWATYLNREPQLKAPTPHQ
# Format: functional
Provide the recorded AC50 for the entries that follow.

Sure, the documented AC50 for O=C(CCCCCCC(=O)Nc1ccccc1)NO [VORINOSTAT] is > 30 µM

Sure, the documented AC50 for CCCCCCCCCCCC[N+](C)(C)CCOc1ccccc1 [DOMIPHEN] is > 30 µM

Sure, the documented AC50 for CN(CCCN1c2ccccc2CCc2ccccc21)CC(=O)c1ccc(Cl)cc1 [LOFEPRAMINE] is > 30 µM

Sure, the documented AC50 for C[C@@H]1O[C@@H]1P(=O)(O)O [FOSFOMYCIN] is > 10 µM

Sure, the documented AC50 for CC/C=C\C/C=C\C/C=C\CCCCCCCC(=O)O [LINOLENIC ACID] is > 30 µM

Sure, the documented AC50 for N/N=c1/cc2c(n[nH]1)CCN(C(=O)c1ccccc1)C2 [ENDRALAZINE] is > 30 µM

Sure, the documented AC50 for CN[C@@H](C)[C@H](O)c1ccccc1 [EPHEDRINE] is > 10 µM

Sure, the documented AC50 for Nc1ncnc2c1ncn2[C@@H]1O[C@H](COP(=O)(O)O)[C@@H](O)[C@H]1O [ADENOSINE PHOSPHATE] is > 30 µM

Sure, the documented AC50 for CCc1ccc(CCOc2ccc(CC3SC(=O)NC3=O)cc2)nc1 (stereo not drawn) [PIOGLITAZONE] is > 10 µM

Sure, the documented AC50 for CN1CCC2=C(C1)C(c1ccccc1)c1ccccc12 (stereo not drawn) [PHENINDAMINE] is > 10 µM

Sure, the documented AC50 for O=C(C[S+]([O-])C(c1ccccc1)c1ccccc1)NO (stereo not drawn) is > 30 µM

Sure, the documented AC50 for CN1C(=O)CC(=O)N(c2ccccc2)c2cc(Cl)ccc21 [CLOBAZAM] is 0.3 µM

Sure, the documented AC50 for COc1ccc(C(=O)N2CCN(c3ccc4c(c3)CCC(=O)N4)CC2)cc1OC [VESNARINONE] is > 30 µM

Sure, the documented AC50 for CS(=O)(=O)c1ccc([C@@H](O)[C@@H](CO)NC(=O)C(Cl)Cl)cc1 [THIAMPHENICOL] is > 30 µM

Sure, the documented AC50 for COc1cc2c(cc1OC)C(=O)C(CC1CCN(Cc3ccccc3)CC1)C2 (stereo not drawn) [DONEPEZIL] is > 10 µM

Sure, the documented AC50 for CC(=O)N(CC(O)CO)c1c(I)c(C(=O)NCC(O)CO)c(I)c(C(=O)NCC(O)CO)c1I (stereo not drawn) [IOHEXOL] is > 10 µM

Sure, the documented AC50 for CCOc1cc(N)c([N+](=O)[O-])cc1C(=O)NC1CCN(CC2CC=CCC2)CC1 (stereo not drawn) [CINITAPRIDE] is 14 µM

Sure, the documented AC50 for CCCCCOC(=O)Nc1nc(=O)n([C@@H]2O[C@H](C)[C@@H](O)[C@H]2O)cc1F [CAPECITABINE] is > 30 µM
